target-or-system: catalytic domain (JH1, amino acids 808-1132) of human JAK2 (Homo sapiens, UniProt O60674)
Sequence (O60674 808-1132 limits assumed): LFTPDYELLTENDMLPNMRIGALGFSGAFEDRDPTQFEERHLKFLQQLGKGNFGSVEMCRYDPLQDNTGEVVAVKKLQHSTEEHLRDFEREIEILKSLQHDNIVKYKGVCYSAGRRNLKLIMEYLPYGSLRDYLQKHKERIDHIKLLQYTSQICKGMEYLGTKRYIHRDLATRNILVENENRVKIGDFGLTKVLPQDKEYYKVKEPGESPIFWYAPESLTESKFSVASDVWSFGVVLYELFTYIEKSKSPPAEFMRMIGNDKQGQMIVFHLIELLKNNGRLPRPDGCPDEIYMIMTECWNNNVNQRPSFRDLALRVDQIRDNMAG
protocol-summary: JAK2 HTRF Enzyme Activity Assay
Format: biochemical
condition-notes: ATP 30 µM, 60 minutes at 25° C.; read-out: V617F ENZ 30 UM
pIC50: −log10 of the molar value.
metric: pIC50

compound=COC(=O)N[C@@H]1CC[C@@H](n2c(=O)n(C)c3cnc(Nc4cc(NC(=O)C5CC5)cc(-c5cnn(C)c5)c4)cc32)C1 metric=pIC50 data_value="< 6.00"
compound="Cn1c(=O)n(C2CCOC2)c2cc(Nc3cc(NC(=O)OC4CCC4)cc(-c4cnn(C5CC5)c4)c3)ncc21 (stereo not drawn)" metric=pIC50 data_value="< 6.00"
compound="[2H]C([2H])([2H])n1c(=O)n([C@@H]2CC[C@@H](NC(=O)OC)C2)c2cc(Nc3cc(C(=O)N4CCN5CCCCC5C4)cc(-c4ccc5c(c4)OCCO5)n3)ncc21 (stereo partly drawn)" metric=pIC50 data_value="< 6.00"
